Study system: T1, Human CD47-C33G (human, UniProt Q08722 19-135)
T1 construct: also called CD47 mutein with C33G mutation
T1 sequence (Q08722 19-135 C33G limits assumed): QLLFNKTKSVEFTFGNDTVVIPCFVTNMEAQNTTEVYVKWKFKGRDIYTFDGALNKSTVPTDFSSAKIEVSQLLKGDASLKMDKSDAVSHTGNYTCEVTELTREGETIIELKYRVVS
Assay info: SPR, IgG captured, CD47 in flow; exp 3;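 note: biacore T200 SPR with antibodies taken from supernatants of transfected HEK293 cells, C33G mutein avoiding IgV homodimers for monovalent affinity, Kd derived from association and dissociation rate constants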
Readout type: pKd
As a rule, pKd stands for the negative log10 of the concentration, concentration in M.

Study these solved cases before continuing.
| Binder | Readout type | Measured value |
| --- | --- | --- |
| 108VH5.M17 / 108VL1.M5 (antibody, human IgG4 S228P, kappa, V domains shown, Full-length IgG4 (S228P), kappa; also called VH5.M17 VL1.M5) VH: EVQLVQSGAEVKKPGASVKVSCKASGYTFTHHWMHWVRQAPGQGLEWMGMIDASEGETRYAQKFQGRVTMTRDTSTSTVYMELSSLRSEDTAVYYCARLGRYYFDYWGQGTLVTVSS VL: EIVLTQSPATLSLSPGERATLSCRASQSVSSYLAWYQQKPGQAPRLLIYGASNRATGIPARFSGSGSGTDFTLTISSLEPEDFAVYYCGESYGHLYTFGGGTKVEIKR | pKd | 5.89 |
| 108VH5.M18 / 108VL1.M5 (antibody, human IgG4 S228P, kappa, V domains shown, Full-length IgG4 (S228P), kappa; also called VH5.M18 VL1.M5) VH: EVQLVQSGAEVKKPGASVKVSCKASGYTFTHHWMHWVRQAPGQGLEWMGMIDASESETRYAQKFQGRVTMTRDTSTSTVYMELSSLRSEDTAVYYCARLGRYYFDYWGQGTLVTVSS VL: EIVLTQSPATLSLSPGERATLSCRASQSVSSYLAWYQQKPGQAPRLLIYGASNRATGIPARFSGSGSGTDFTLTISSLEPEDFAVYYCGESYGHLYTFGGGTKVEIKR | pKd | 5.92 |

[in] Record request: pKd value, item 108VH5.M16 / 108VL1.M5 (antibody, human IgG4 S228P, kappa, V domains shown, Full-length IgG4 (S228P), kappa; also called VH5.M16 VL1.M5) VH: EVQLVQSGAEVKKPGASVKVSCKASGYTFTHHWMHWVRQAPGQGLEWMGMIDASDGETRYAQKFQGRVTMTRDTSTSTVYMELSSLRSEDTAVYYCARLGRYYFDYWGQGTLVTVSS VL: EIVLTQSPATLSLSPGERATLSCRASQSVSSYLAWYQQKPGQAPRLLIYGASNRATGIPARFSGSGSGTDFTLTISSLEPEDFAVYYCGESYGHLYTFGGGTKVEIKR
[out] 7.85
